Tested on: oligoribonucleotide 4 (biotinylated FRET-pair truncated pre-miR-21) (RNA, miRNA, tC^O (cytosine analogue, donor) at 15; tCnitro (cytosine analogue, acceptor) at 24) CCGACUGAUGUUGACUGUUGAAUCUCAUGGCAACACCAGUCGG
Assay: SPR steady state
Conditions: 80 mM NaCl, 100 mM total Na+; 20 mM sodium cacodylate, pH 7.2; equivalent affinity for all sites; per site
EXPERIMENTAL_ENDPOINT: Kd (µM)

NC[C@H]1O[C@H](O[C@H]2[C@H](O[C@@H]3O[C@H](CO)[C@@H](O)[C@H]3O)[C@@H](O)[C@H](N)C[C@@H]2N)[C@H](N)[C@@H](O)[C@@H]1O 78
NCC[C@H](O)C(=O)N[C@@H]1C[C@H](N)[C@@H](O[C@H]2O[C@H](CN)[C@@H](O)[C@H](O)[C@H]2O)[C@H](O)[C@H]1O[C@H]1O[C@H](CO)[C@@H](O)[C@H](N)[C@H]1O 14
CN[C@@H]1[C@@H](O)[C@@H](O[C@@H]2[C@@H](O)[C@H](O[C@H]3O[C@H]([C@@H](C)O)[C@@H](O)[C@H](O)[C@H]3N)[C@@H](N)C[C@H]2N)OC[C@]1(C)O 94

a: NC[C@H]1O[C@H](O[C@H]2[C@H](O)[C@@H](O[C@H]3O[C@H](CO)[C@@H](O)[C@H](N)[C@H]3O)[C@H](N)C[C@@H]2N)[C@H](N)C[C@@H]1O
b: NC[C@H]1O[C@H](O[C@H]2[C@H](O)[C@@H](O[C@H]3O[C@H](CO)[C@@H](O)[C@H](N)[C@H]3O)[C@H](N)C[C@@H]2N)[C@H](O)[C@@H](O)[C@@H]1O
Between these two entries, a and b , state which has the higher Kd. API: response body contains the label of the selected item.
b
(b: 45 µM, a: 8 µM)

---

System: oligoribonucleotide 7 (stem FRET-labelled truncated pre-miR-21) (RNA, miRNA, tC^O (cytosine analogue, donor) at 15; tCnitro (cytosine analogue, acceptor) at 37) CCGACUGAUGUUGACUGUUGAAUCUCAUGGCAACACCAGUCGG
Experiment: interbase-FRET, change in FRET efficiency
Conditions: 80 mM NaCl, 100 mM total Na+; 20 mM sodium cacodylate, pH 7.2; 1 µM RNA, 15 µM compound; single concentration, not a constant
EXPERIMENTAL_ENDPOINT: ΔFRET15µM

P: NC[C@H]1O[C@H](O[C@H]2[C@H](O)[C@@H](O[C@H]3O[C@H](CO)[C@@H](O)[C@H](N)[C@H]3O)[C@H](N)C[C@@H]2N)[C@H](N)C[C@@H]1O
Q: CN[C@@H]1[C@H](O[C@H]2[C@H](O[C@H]3[C@H](O)[C@@H](O)[C@H](N=C(N)N)[C@@H](O)[C@@H]3N=C(N)N)O[C@@H](C)[C@]2(O)C=O)O[C@@H](CO)[C@H](O)[C@H]1O
Short answer wanted: higher ΔFRET15µM, P or Q ? // caller expects the label of the chosen entry
P
(P: 0.049, Q: 0.008)
